# experimental_protocol: Selectivity index, ratio of IC50 for cytotoxicity against rat 3T3 cells to IC50 for antitrypanosomal activity against Trypanosoma cruzi Tulahuen strain C2C4 amastigotes infected in rat 3T3 cells
# protocol_conditions: 3T3 cells
test_readout: selectivity ratio

Sample answers from the record:
• O=[N+]([O-])c1cn2c(n1)OC[C@H](OCC#Cc1ccc(-c3ccc(OC(F)(F)F)cc3)cn1)C2 = > 55
• CC[C@@H]([C@H](C)O)n1ncn(-c2ccc(N3CCN(c4ccc(OC[C@@H]5CO[C@@](Cn6cncn6)(c6ccc(F)cc6F)C5)cc4)CC3)cc2)c1=O [POSACONAZOLE] = > 833
• CSc1cnc2n1CC(C)(COc1ccc(OC(F)(F)F)cc1)O2 (centres undefined) = > 37

# input for lookup
QUERY: What does the record list as selectivity ratio for CC1(COc2ccc(OC(F)(F)F)cc2)CCn2cc([N+](=O)[O-])nc2S1(=O)=O (centres undefined) ?
RESULT: > 28

Where do these numbers come from? They come from ChEMBL document CHEMBL4706606.
